Where these numbers come from: PubChem BioAssay (EPA / NIEHS)

target: Cellular tumor antigen p53 (Homo sapiens) (UniProt P04637); test: TOX21_p53_BLA_p4_ratio: Tox21 HCT-116 p53 Agonism Beta-lactamase Assay, Ratio, Phase 4 (AID 2283601)
Sequence (P04637 whole entry, looked up): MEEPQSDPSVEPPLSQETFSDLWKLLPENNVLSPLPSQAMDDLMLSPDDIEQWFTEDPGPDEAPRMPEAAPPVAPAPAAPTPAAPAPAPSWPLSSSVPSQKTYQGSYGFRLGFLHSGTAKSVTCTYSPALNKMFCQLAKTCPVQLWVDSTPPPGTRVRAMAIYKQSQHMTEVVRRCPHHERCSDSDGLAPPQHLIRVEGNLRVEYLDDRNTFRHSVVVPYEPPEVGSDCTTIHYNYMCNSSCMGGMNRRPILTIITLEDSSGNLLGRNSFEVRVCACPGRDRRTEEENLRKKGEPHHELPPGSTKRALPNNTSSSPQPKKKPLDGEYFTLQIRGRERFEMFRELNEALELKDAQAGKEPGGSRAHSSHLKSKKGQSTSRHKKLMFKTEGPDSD
Inconclusive results are not listed. Calls of active or inactive are those of the source. How the source made its calls: active means hit-call score of the fitted dose curve at least 0.9, where 1 is the maximum; inconclusive means response in the unintended direction; inactive means score below 0.9.
Form entry, call: pick from 1 (yes) (active), 0 (no) (inactive)

Which result was noted for this compound in the test: Brc1c(NC2=NCCN2)ccc2nccnc12
0 (no)

What about COc1cc(CNC(=O)CCCC/C=C/C(C)C)ccc1O ?
0 (no)

Proceed to COc1c(C)c2c(c(O)c1C/C=C(\C)CCC(=O)O)C(=O)OC2
1 (yes)

Please answer likewise for CSc1nc2cc(Oc3cccc(Cl)c3Cl)c(Cl)cc2[nH]1
1 (yes)

Same lookup for O=C(CCc1ccc(O)cc1)c1c(O)cc(O)cc1O , please.
0 (no)

Repeat for the following compound: C[C@@H]1CN(c2c(F)c(N)c3c(=O)c(C(=O)O)cn(C4CC4)c3c2F)C[C@H](C)N1
0 (no)

Further, for O=S(=O)(O)CCCS(=O)(=O)O ?
0 (no)

Proceed to CC(NCCC(c1ccccc1)c1ccccc1)c1ccccc1 (stereo not drawn)
1 (yes)

Follow-up entry: N#Cc1cc2ccccc2c2ccccc12
0 (no)

Continue with CCC(C)(C)C
0 (no)

Record: OC(CN1CCCCC1)c1cc(-c2ccccc2)on1 (stereo not drawn)
0 (no)

Same question, C[C@H](O)CN(C)C this time
0 (no)

Query CC(Cl)C(Cl)Cl (stereo not drawn) next
0 (no)

Cc1c(N(C)CS(=O)(=O)O)c(=O)n(-c2ccccc2)n1C , same question.
0 (no)

Same again, this time with Cc1cccc(Nc2ccncc2S(=O)(=O)NC(=O)NC(C)C)c1
0 (no)

Queued: CCOc1ccc([N+](=O)[O-])cc1
1 (yes)

Lookup Cc1ccccc1C(N)=O
0 (no)

What do you have for Cc1cc(NS(=O)(=O)c2ccc(N)cc2)nc(C)n1 ?
0 (no)

Try this compound next: O=c1[nH]c(=O)n([C@H]2C[C@H](O)[C@@H](CO)O2)cc1F
1 (yes)

Please give the result for COc1cc(C(=O)NCc2ccc(OCCN(C)C)cc2)cc(OC)c1OC too.
0 (no)

Same for Cn1cc(NC(=O)c2cc(NC(=O)c3cc(NC=O)cn3C)cn2C)cc1C(=O)NCCC(=N)N
0 (no)

Similarly, CCc1cc(S(=O)(=O)O)c2cc(C(C)C)cccc1-2 ?
0 (no)

Okay, and O=C(O)c1ccc(-n2nc(-c3ccccc3O)nc2-c2ccccc2O)cc1 ?
0 (no)

Same read-out for CCn1c2ccccc2c2cc([N+](=O)[O-])ccc21 ?
0 (no)

Consider next the compound Oc1ccc(Cl)c2c1CCC2 in the same way.
0 (no)

Next compound up: CC(C)(C)OC(=O)N1C[C@@H](F)C[C@H]1C(=O)O
0 (no)

Try this compound too: CO[C@H]1/C=C/O[C@@]2(C)Oc3c(C)c(O)c4c(O)c(c5c(c4c3C2=O)=NC2(CCN(CC(C)C)CC2)N=5)NC(=O)/C(C)=C\C=C\[C@H](C)[C@H](O)[C@@H](C)[C@@H](O)[C@@H](C)[C@H](OC(C)=O)[C@@H]1C
0 (no)

What do you have for CC1(CN2CCC(n3c(=O)[nH]c4ccccc43)CC2)OCc2ccccc2-n2cccc21 (stereo not drawn) ?
0 (no)

Follow-up item: OC[C@@H](O)C(O)[C@H](O)CO
0 (no)

How about CC(C)CN(C[C@@H](O)[C@H](Cc1ccccc1)NC(=O)O[C@H]1CO[C@H]2OCC[C@H]21)S(=O)(=O)c1ccc(N)cc1 ?
0 (no)

Subsequent entry: O=C1c2c(O)cccc2[C@H]([C@@H]2O[C@H](CO)[C@@H](O)[C@H](O)[C@H]2O)c2cc(CO)cc(O)c21
0 (no)

Consider next the compound COCC(=O)Nc1c(I)c(C(=O)NCC(O)CO)c(I)c(C(=O)N(C)CC(O)CO)c1I (stereo not drawn) in the same way.
0 (no)

Lookup O=C(O)C(S)C(S)C(=O)O (stereo not drawn)
0 (no)

Note, next up: Cc1nccn1CC1CCc2c(c3ccccc3n2C)C1=O (stereo not drawn)
0 (no)

Can you handle O=C(O)CCCc1ccccc1 next?
0 (no)

Try Nc1nnc(-c2cccc(Cl)c2Cl)c(N)n1 next.
0 (no)

How about this compound: C1CCC2OC2C1 (stereo not drawn)
0 (no)

How about this compound: CCO[Si](CC(C)C)(OCC)OCC
0 (no)

And for C#CCN(C)CCCOc1ccc(Cl)cc1Cl ?
0 (no)

Repeat for the following compound: O=c1[nH]c(=O)n([C@H]2C[C@H](O)[C@@H](CO)O2)cc1Br
0 (no)

And FC(F)(F)C(F)(F)C(F)(F)C(F)(F)C(F)(F)C(F)(F)C(F)(F)C(F)(F)Br ?
0 (no)

Now consider Cc1ccc(S(=O)(=O)NC(=O)NN2CC3CCCC3C2)cc1 (stereo not drawn) and answer again.
0 (no)

Can you check O=C(O)Cc1ccc(CCNS(=O)(=O)c2ccc(Cl)cc2)cc1 next?
0 (no)
